The reported numbers originate from patent US8354436B2.

Reported IC50 values for the following compounds.
# Test system: IFN-γ
# method description: IFN-γ production by PHA-stimulated human PBMC (OptEIA human IFN-g ELISA)
# Type: cell-based
# condition summary: human PBMC, 2 μg/ml PHA, 48 hours; read-out: C: IC50 (IFNγ)
endpoint name: IC50

[
  {
    "compound": "Fc1cccc(Cl)c1-c1noc(-c2cnn(-c3cccnc3)c2C(F)(F)F)c1-c1nnco1 [Example B-15]",
    "endpoint value": "100 to 1000 nM"
  },
  {
    "compound": "Fc1cccc(Cl)c1-c1noc(-c2cnn(-c3cccc(Cl)c3)c2C(F)(F)F)c1-c1cnco1 [Example 8]",
    "endpoint value": "< 10 nM"
  },
  {
    "compound": "COc1cccc(Cl)c1-c1noc(-c2cnn(-c3ccccc3Cl)c2C(F)(F)F)c1-c1cnco1 [Example B-34]",
    "endpoint value": "100 to 1000 nM"
  }
]
